These measurements were taken from patent US9994628B2.

Target: HLA-A*02:01 (Homo sapiens, UniProt P04439, D140Y/D185E/D98H/E176V/E277Q/G131W/G231S/I119V/I121R/I166T/I218V/L300P/L318F/N151K/N90K/P208A/P217A/Q86G/Q94H/R138H/R169H/T345S)
Assay: MHC binding assay: UV-ligand exchange and β2m ELISA (peptide exchange yield, Table 7)
Conditions: binding of HLA-class I restricted peptides to HLA-A*02:01, UV-ligand exchange
reported metric: Peptide exchange (MHC class I binding score, peptide exchange yield)

# substance, test value
data = [
    ("210 (GLAGDNIYL; listed as Homo sapiens) [compound 210]", "+++ (≥50% = +++)"),
    ("137 (KLIYKDLVSV; listed as Homo sapiens) [compound 137]", "++ (≥20% = ++)"),
    ("229 (YLYELEHAL; listed as Homo sapiens) [compound 229]", "++ (≥20% = ++)"),
    ("126 (QLREAFEQL; listed as Homo sapiens) [compound 126]", "+++ (≥50% = +++)"),
    ("97 (KLFEKSTGL; listed as Homo sapiens) [compound 97]", "+++ (≥50% = +++)"),
    ("176 (VQSGLRILL; listed as Homo sapiens) [compound 176]", "++ (≥20% = ++)"),
    ("214 (ALFETLIQL; listed as Homo sapiens) [compound 214]", "+++ (≥50% = +++)"),
    ("29 (KMISAIPTL; listed as Homo sapiens) [compound 29]", "++ (≥20% = ++)"),
    ("165 (SLLDYEVSI; listed as Homo sapiens) [compound 165]", "+++ (≥50% = +++)"),
    ("69 (LKVLKADVVL; listed as Homo sapiens) [compound 69]", "++ (≥20% = ++)"),
    ("144 (FLISQTPLL; listed as Homo sapiens) [compound 144]", "+++ (≥50% = +++)"),
    ("95 (KLIDEDEPLFL; listed as Homo sapiens) [compound 95]", "+++ (≥50% = +++)"),
    ("41 (IVTEIISEI; listed as Homo sapiens) [compound 41]", "+++ (≥50% = +++)"),
]
